Data origin, for the record: patent US10138233B2

The reader will find reported EC50 values listed item by item below.
Study system: FSHR (Homo sapiens)
Sequence (P23945 18-695): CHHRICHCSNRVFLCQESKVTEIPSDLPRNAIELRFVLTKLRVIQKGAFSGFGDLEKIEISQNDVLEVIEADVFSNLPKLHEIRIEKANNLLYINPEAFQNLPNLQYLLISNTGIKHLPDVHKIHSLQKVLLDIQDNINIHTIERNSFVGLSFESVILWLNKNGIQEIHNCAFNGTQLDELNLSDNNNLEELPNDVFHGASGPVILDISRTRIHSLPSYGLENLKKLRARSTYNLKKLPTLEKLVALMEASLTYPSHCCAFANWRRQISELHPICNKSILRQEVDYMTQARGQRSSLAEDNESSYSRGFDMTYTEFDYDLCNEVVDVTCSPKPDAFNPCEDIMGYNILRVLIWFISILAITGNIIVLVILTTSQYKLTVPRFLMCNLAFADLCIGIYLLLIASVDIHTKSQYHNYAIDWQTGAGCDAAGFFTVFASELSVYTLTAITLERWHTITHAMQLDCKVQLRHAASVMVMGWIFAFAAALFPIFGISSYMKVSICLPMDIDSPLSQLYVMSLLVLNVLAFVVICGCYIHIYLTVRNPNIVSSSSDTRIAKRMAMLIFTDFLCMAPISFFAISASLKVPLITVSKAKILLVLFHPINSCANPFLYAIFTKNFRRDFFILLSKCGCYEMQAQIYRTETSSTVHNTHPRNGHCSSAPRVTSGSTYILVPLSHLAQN
Measurement description: EC50 of cyclic AMP production in CHO FSHR cells + EC20 FSH (Assay A)
Condition label: CHO-FSHR-LUC cells, in presence of EC20 FSH, cAMP HTRF, 1 h 37° C.
Method: EC50 of cyclic AMP production in CHO FSHR cells+EC20 FSH (Assay A) 2500 Cho-FSHR-LUC-1-1-43 cells were plated per well in 5 μl of phenol red free DMEM/F12+1% FBS. […] Cells were assayed by adding 100 μl of 2×EC20 FSH/IBMX in DMEM/F12+0.1% BSA) by Multidrop to 2 μl of test compound stamped in 384 well plates (compounds are diluted 1:50). […] The plates were read on Envision using the cAMP HTRF—low volume 384 well protocol. […]
Readout label: EC50

> print(dat)
                                    molecule          reading
 1  COc1cc2c(cc1OC(C)C)-n1c(C3=CCNCC3)nc(C(=O)N3CCOCC3(C)C)c1CC2        > 5000 nM
 2  COc1cc2c(cc1OC(C)C)-n1c(-c3ccc(Cl)c(F)c3)nc(C(=O)N3CCOCC3(C)C)c1CC2   100 to 1000 nM
 3  COc1cc2c(cc1CC(C)C)-n1c(-c3cccs3)nc(C(=O)NC(C)(C)CO)c1CC2  1000 to 5000 nM
 4  COc1cc2c(cc1OC(C)C)-n1c(-c3cccnc3)nc(C(=O)N3CCOCC3(C)C)c1CC2  1000 to 5000 nM
 5  COc1cc2c(cc1OC(C)C)-n1c(-c3ccsc3)nc(C(=O)N3CCCN(C(=O)N4CCC4)CC3)c1CC2   100 to 1000 nM
 6  COc1cc2c(cc1OC(C)C)-n1c(-c3cn[nH]c3)nc(C(=O)N3CCOCC3(C)C)c1CC2        > 5000 nM
 7  COc1cc2c(cc1OC(C)C)-n1c(-c3cccc4c3OCO4)nc(C(=O)N3CCOCC3(C)C)c1CC2   100 to 1000 nM
 8  COc1cc2c(cc1OC(C)C)-n1c(-c3cc(Cl)ccc3OC)nc(C(=O)N3CCOCC3(C)C)c1CC2  1000 to 5000 nM
 9  COc1cc2c(cc1OC(C)C)-n1c(C3CCCCO3)nc(C(=O)N3CCOCC3(C)C)c1CC2 (stereo not drawn)        > 5000 nM
10  COc1cc2c(cc1CC(C)C)-n1c(-c3cn[nH]c3)nc(C(=O)N(C)C(C)(C)C)c1CC2  1000 to 5000 nM
11  COc1cc2c(cc1OC(C)C)-n1c(-c3cccc(OC)c3F)nc(C(=O)N3CCOCC3(C)C)c1CC2  1000 to 5000 nM
12  COc1cc2c(cc1OC(C)C)-n1c(-c3ccc(C)cc3)nc(C(=O)N(C)C(C)(C)C)c1CC2   100 to 1000 nM
13  COc1cc2c(cc1OC(C)C)-n1c(-c3ccncc3)nc(C(=O)N(C)C(C)(C)C)c1CC2        > 5000 nM
14  COc1cc2c(cc1-c1cnn(C)c1)-n1c(-c3cccs3)nc(C(=O)N3CCOCC3(C)C)c1CC2         < 100 nM
15  [2H]C([2H])([2H])NC(=O)c1cc2c(cc1OC)CCc1c(C(=O)N(C)C(C)(C)C)nc(-c3cccs3)n1-2  1000 to 5000 nM
